System: db/db mice
EXPERIMENTAL PROTOCOL: Glucose and lipid metabolism in db/db mice, 56 d administration
Format: in vivo
MEASUREMENT SETUP: once/d 56 d, Losartan 10 mg/kg, TMP 5.0 mg/kg, OLB-1/OLB-2 13.32 mg/kg, mean±SEM, n=6
PROPERTY MEASURED: Total cholesterol

# Total cholesterol measured on db/db mice for item Cc1nc(C)c(CNC(=O)OCCc2ccc(O)cc2)nc1C [OLB-2] = 7.38 ± 0.34(c) mM

# Total cholesterol measured on db/db mice for item Cc1nc(C)c(C)nc1C [TMP, tetramethylpyrazine, reference compound] = 10.96 ± 1.38 ^ mM

# Total cholesterol measured on db/db mice for item Cc1nc(C)c(COC(=O)OCCc2ccc(O)cc2)nc1C [OLB-1] = 8.36 ± 2.63(c) mM

# Total cholesterol measured on db/db mice for item CCCCc1nc(Cl)c(CO)n1Cc1ccc(-c2ccccc2-c2nn[nH]n2)cc1 [Losartan, reference compound] = 6.76 ± 0.46(c) mM

====

Test system: db/db mice
EXPERIMENTAL PROTOCOL: Glucose and lipid metabolism in db/db mice, 56 d administration
Format: in vivo
MEASUREMENT SETUP: once/d 56 d, Losartan 10 mg/kg, TMP 5.0 mg/kg, OLB-1/OLB-2 13.32 mg/kg, mean±SEM, n=6
Parameter: Urea. Scope: all listed entries.

Lab note: Cc1nc(C)c(COC(=O)OCCc2ccc(O)cc2)nc1C [OLB-1] gave Urea of 8.03 ± 0.61(c) mmol/L

Lab note: CCCCc1nc(Cl)c(CO)n1Cc1ccc(-c2ccccc2-c2nn[nH]n2)cc1 [Losartan, reference compound] gave Urea of 7.23 ± 0.51(c) mmol/L

Lab note: Cc1nc(C)c(C)nc1C [TMP, tetramethylpyrazine, reference compound] gave Urea of 11.55 ± 0.59 ^ mmol/L

Lab note: Cc1nc(C)c(CNC(=O)OCCc2ccc(O)cc2)nc1C [OLB-2] gave Urea of 7.48 ± 0.35(c) mmol/L
